Ref: the RNAGym collection of RNA variant scans (doi:10.1021/acssynbio.7b00057)

B1: Pistol ribozyme (parent)
chain: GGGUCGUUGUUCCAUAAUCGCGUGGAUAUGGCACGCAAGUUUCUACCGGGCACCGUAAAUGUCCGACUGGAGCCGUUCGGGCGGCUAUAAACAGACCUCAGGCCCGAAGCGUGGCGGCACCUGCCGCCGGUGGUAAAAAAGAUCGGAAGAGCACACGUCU

Variants of: B1
Test: aptazyme ON/OFF ratio, guanine; higher = stronger switching; co-transcriptional cleavage with and without guanine

{"columns": ["variant code", "aptazyme ON/OFF ratio"],
 "data": [
  ["U8G U10C U11G C12G C13G", 1.18],
  ["U8C G9A U10G U11C", 1.05],
  ["U7C G9A U11A C13U", 1.13],
  ["U7G U8C G9A U11A C12U C13G", 1.08],
  ["U7G U8G G9A U10A U11G", 2.19],
  ["U7A U8A G9C U10G", 2.69],
  ["U7G G9C U11C C12G C13U", 1.36],
  ["U7C U8A G9U U10A U11G C13U", 1.17],
  ["U8C G9C U10G U11A C12A C13G", 1.1],
  ["U7C U8A G9C U11G C12U C13U", 1.13]
]}
